# Target Under Test: human B1 (Homo sapiens)
# Test Description: Calcium flux assay for Bradykinin B1 antagonist, CHO-K1 cell line expressing human B1
# Recorded Conditions: CHO-K1 cells expressing human B1, agonist Lys-(Des-Arg)-Bradykinin, read-out: Potency (IC50 value against human B1)
Counter-ions that a name gives are not always drawn.
Collected IC50 values appear next to each entry.

(Q) So what does the record say about IC50 for COc1cc(C)c(S(=O)(=O)N(C)Cc2nc(C(=O)N(C)Cc3ccc(C4=NCCN4)cc3)co2)c(C)c1 ?
(A) < 10 nM

(Q) If you can, please state the reported IC50 value of CN(Cc1cc(C(=O)NCc2ccc(CN3CCCC3)cc2)co1)S(=O)(=O)c1c(Cl)cc(Br)cc1Cl .
(A) 100 to 1000 nM

(Q) Given the entry COc1cc(C)c(S(=O)(=O)N(Cc2noc(C(=O)N3CCN(CCCCN(C)C)CC3)n2)C2CC2)c(C)c1 [Ex 320, trifluoroacetate] , report its measured IC50.
(A) 100 to 1000 nM

(Q) // returns reported IC50 for input COc1cc(C)c(S(=O)(=O)N(C)Cc2cc(C(=O)N(C)Cc3ccc(-n4ccnc4)cc3)co2)c(C)c1
(A) 100 to 1000 nM

(Q) IC50 for COc1cc(C)c(S(=O)(=O)N(C)Cc2nc(C(=O)N3CCN(C4CCN(C)CC4)CC3)co2)c(C)c1 ?
(A) 10 to 100 nM

---
(Q) What value of IC50 has been reported for the following compound? COc1cc(C)c(S(=O)(=O)N(C)Cc2cc(C(=O)N3CCN(Cc4ccncc4)CC3)co2)c(C)c1
(A) 100 to 1000 nM

(Q) # get_value(readout='IC50', item= COc1cc(C)c(S(=O)(=O)N(C)Cc2nc(C(=O)N(C)Cc3ccc(CN4CCC(O)CC4)cc3)co2)c(C)c1 )
(A) < 10 nM

(Q) # IC50 lookup, item COc1cc(C)c(S(=O)(=O)N(Cc2nc(C(=O)N3CCC(C4CCNCC4)CC3)co2)C2CC2)c(C)c1 [Ex 239, trifluoroacetate]
(A) 100 to 1000 nM

(Q) Any idea what its IC50 is? The compound is COc1cc(C)c(S(=O)(=O)N(Cc2cc(C(=O)N3CCN(C4CC(C)(C)N(C)C(C)(C)C4)CC3)co2)C2CC2)c(C)c1 [Ex 108, trifluoroacetate]
(A) 100 to 1000 nM

(Q) Which IC50 value belongs to COc1cc(C)c(S(=O)(=O)N(C)Cc2cc(C(=O)N(C)Cc3ccc(CN4CCC(C(=O)N(C)C)C4)cc3)co2)c(C)c1 (stereo not shown) ?
(A) 100 to 1000 nM

(Q) IC50 lookup needed for COc1cc(C)c(S(=O)(=O)N(Cc2nnc(C(=O)N3CCN(C4CCN(C)CC4)CC3)o2)C2CC2)c(C)c1 , thanks.
(A) 10 to 100 nM

(Q) Query (compound): COc1cc(C)c(S(=O)(=O)N(Cc2nnc(C(=O)N3CCN(CCCN4CCCC4)CC3)s2)C2CC2)c(C)c1 ; field requested: IC50
(A) 10 to 100 nM

(Q) Entry under review: COc1cc(C)c(S(=O)(=O)N(C)Cc2nnc(C(=O)N(C)CCc3ccc(C4=NCCN4)cc3)o2)c(C)c1 . Reported IC50?
(A) < 10 nM

(Q) Need IC50, item COc1cc(C)c(S(=O)(=O)N(Cc2nc(C(=O)N(C)Cc3cccc(CN4CCCC4)c3)co2)C2CC2)c(C)c1
(A) < 10 nM

(Q) Which IC50 value is on record for COc1cc(C)c(S(=O)(=O)N(Cc2cc(C(=O)N3CCN(CC4CCCN(C)C4)CC3)co2)C2CC2)c(C)c1 (stereo not shown) [Ex 106, trifluoroacetate] ?
(A) 10 to 100 nM

(Q) # IC50 lookup, item Cc1cc(S(=O)(=O)N(Cc2nc(C(=O)N(C)CCc3ccc(C4=NCCN4)cc3)co2)C2CC2)c(C)cc1Cl [Ex 217, trifluoroacetate]
(A) 100 to 1000 nM

---

# Target Under Test: human B1 (Homo sapiens, UniProt P46663)
# Sequence (P46663 whole entry): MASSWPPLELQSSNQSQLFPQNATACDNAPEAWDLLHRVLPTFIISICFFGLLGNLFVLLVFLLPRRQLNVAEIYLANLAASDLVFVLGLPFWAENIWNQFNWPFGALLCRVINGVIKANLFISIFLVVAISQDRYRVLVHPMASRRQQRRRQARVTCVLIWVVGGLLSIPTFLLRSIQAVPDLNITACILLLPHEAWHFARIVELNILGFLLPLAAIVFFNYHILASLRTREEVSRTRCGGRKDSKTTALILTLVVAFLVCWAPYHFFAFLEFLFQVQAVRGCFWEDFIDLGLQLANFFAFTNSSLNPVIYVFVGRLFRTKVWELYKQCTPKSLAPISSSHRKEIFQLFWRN
# Test Description: Calcium flux assay for Bradykinin B1 antagonist, CHO-K1 cell line expressing human B1
# Recorded Conditions: CHO-K1 cells expressing human B1, agonist Lys-(Des-Arg)-Bradykinin, read-out: Potency (IC50 value against human B1)
Counter-ions that a name gives are not always drawn.
Consider the following compounds and their measured IC50 readings.

Below: 2 compounds and their reported IC50.
(Q) Tell me the measured IC50 of CCN(Cc1cc(C(=O)N(C)Cc2ccc(CN3CCCC3)cc2)co1)S(=O)(=O)c1c(C)cc(OC)cc1C [Ex 102, trifluoroacetate] , please.
(A) 100 to 1000 nM

(Q) Look up IC50 for this compound: COc1cc(C)c(S(=O)(=O)N(C)Cc2nnc(C(=O)N(C)Cc3cccc(CN4CCCC4)c3)s2)c(C)c1 [Ex 331, trifluoroacetate]
(A) 10 to 100 nM

Proceeding to the next compound to report its IC50.
(Q) // returns reported IC50 for input COc1cc(C)c(S(=O)(=O)N(C)Cc2nnc(C(=O)N(C)Cc3ccc(CN4CCCC4)cc3)s2)c(C)c1 [Ex 329]
(A) 100 to 1000 nM

---

# Target Under Test: human B1 (Homo sapiens, UniProt P46663)
# Test Description: Calcium flux assay for Bradykinin B1 antagonist, CHO-K1 cell line expressing human B1
# Recorded Conditions: CHO-K1 cells expressing human B1, agonist Lys-(Des-Arg)-Bradykinin, read-out: Potency (IC50 value against human B1)
Where a name gives a salt, the structure may show the parent alone.
Readings of IC50 for the listed molecules

(Q) Can you share its IC50? I mean this molecule: COc1cc(C)c(S(=O)(=O)N(Cc2cc(C(=O)N(C)Cc3ccc(CN4CCC(N(C)C)C4)cc3)co2)C2CC2)c(C)c1 (stereo not drawn)
(A) 0.01 to 0.1 µM

(Q) Which IC50 is listed for COc1cc(C)c(S(=O)(=O)N(C)Cc2cc(C(=O)NCc3ccc(CN4CCCC4)c(F)c3)co2)c(C)c1 [Ex 152, trifluoroacetate] ?
(A) 0.1 to 1 µM

(Q) Entry COc1cc(C)c(S(=O)(=O)N(C)Cc2cc(C(=O)NCCc3ccc(Nc4cccc[n+]4C)cc3)co2)c(C)c1 : reported IC50 = ?
(A) < 0.01 µM

(Q) So what's the measured IC50 for this one? COc1cc(C)c(S(=O)(=O)N(Cc2nc(C(=O)N(C)C3CCCC(N4CCN(C)CC4)C3)co2)C2CC2)c(C)c1 (stereo not drawn)
(A) < 0.01 µM

(Q) What value of IC50 has been recorded for this entry: COc1cc(C)c(S(=O)(=O)N(C)Cc2nc(C(=O)N(C)Cc3ccc(CN4CCC(NC(C)=O)C4)cc3)co2)c(C)c1 (stereo not drawn)
(A) 0.01 to 0.1 µM

Now look at this entry.
(Q) Can you look up the measured IC50 of COc1cc(C)c(S(=O)(=O)N(Cc2nc(C(=O)N3CCN(Cc4c(Cl)cncc4Cl)CC3)co2)C2CC2)c(C)c1 [Ex 233, trifluoroacetate] for me?
(A) 0.01 to 0.1 µM

---

// values below are reported pIC50
# Target Under Test: human B1 (Homo sapiens, UniProt P46663)
# Test Description: Calcium flux assay for Bradykinin B1 antagonist, CHO-K1 cell line expressing human B1
# Recorded Conditions: CHO-K1 cells expressing human B1, agonist Lys-(Des-Arg)-Bradykinin, read-out: Potency (IC50 value against human B1)
pIC50: −log10 of the molar value. Counter-ions that a name gives are not always drawn.

Known pIC50 results, listed for orientation:
(Q) Item under review: COc1cc(C)c(S(=O)(=O)N(C)Cc2nnc(C(=O)N3CCN(Cc4ccc(Cl)nc4)CC3)o2)c(C)c1 [Ex 297] . Reported pIC50?
(A) > 8.00

(Q) What value of measured pIC50 is listed for COc1cc(C)c(S(=O)(=O)N(Cc2nc(C(=O)N(C)Cc3ccc(CN4CCC(N(C)C)C4)cc3)co2)C2CC2)c(C)c1 (stereo not drawn) [Ex 190] ?
(A) > 8.00

Continuing:
(Q) Query (compound): CCN(Cc1cc(C(=O)N(C)Cc2ccc(C3=NCCN3)cc2)co1)S(=O)(=O)c1c(C)cc(OC)cc1C [Ex 103, trifluoroacetate] ; field requested: pIC50
(A) 7.00 to 8.00

(Q) // pIC50 lookup, key: COc1cc(C)c(S(=O)(=O)N(Cc2nc(C(=O)N(C)Cc3ccc(CN4CCCC(O)C4)cc3)co2)C2CC2)c(C)c1 (stereo not drawn) [Ex 180]
(A) > 8.00

(Q) # pIC50 lookup, item COc1cc(C)c(S(=O)(=O)N(C)Cc2nnc(C(=O)N3CCN(CC4CCN(CC(C)(C)O)CC4)CC3)o2)c(C)c1 [Ex 266]
(A) 6.00 to 7.00

(Q) Fill blank: measured pIC50 of the compound COc1cc(C)c(S(=O)(=O)N(C)Cc2cc(C(=O)NCCc3ccc(C4=N[C@@H]5CCCC[C@H]5N4)cc3)co2)c(C)c1 [Ex 36] is ____.
(A) 7.00 to 8.00
